- Test system: AlgW
- method-description: AlgW activation by agonist gradient (agonists versus velocity), saturated Abz-VLAG-pNA
- Assay type: biochemical, Pseudomonas aeruginosa
- recorded-conditions: gradient of the agonist alone; 100 μM Abz-VLAG-pNA, 200 nM AlgW; Tris pH 7.5, 37°C; Hill fit; three independent determinations; read-out: Half-Maximal Activation concentration
experimental-endpoint: EC50 (µM)
# value in µM; strip the unit string

Query: # EC50 lookup, item CCCCCCCCCCCCO[C@@H]1O[C@H](CO)[C@@H](O[C@H]2O[C@H](CO)[C@@H](O)[C@H](O)[C@H]2O)[C@H](O)[C@H]1O [DDM, N-dodecyl-β-D-maltopyranoside]
Reply: 92
